target.or.test.system: GST fusion PDZ mutant protein (R46E:K48D) (mammalian (so in the source)) (UniProt P57105)
protocol.description: ELISA, wild type PDZ against PDZ R46E:K48D
observed.property: Affinity fold change (fold)

Enquiry: Can you look up the measured Affinity fold change of P3 (VHH) VHH: DVQLVESGGGLVQAGGSLRLSCAASGRTFSSYTMGWFHQAPGKEREFVAEIGGTGGNTGYADSVKGRFTISRDNAKNTVYLQMNSLKPEDTAVYYCAAVIGSPTDSSDYRSSLDYDYWGQGTQVTVSE for me?
Return: 3.04

Enquiry: Can you look up the measured Affinity fold change of P6 (VHH) VHH: HVQLVESGGGLVQAGGSLRLSCAASGRTFSRYTMGWFHQAPGKEREFVAEISGTGGNTGYADSVKGRFTMSRDNAKNTVYLQMNSLKPEDTGVYYCAAVIGSPTDSSDYRSSLDYDYWGQGTQVTVSE for me?
Return: 3.32

Enquiry: Can you look up the measured Affinity fold change of P11 (VHH) VHH: DVQLVESGGGLVQAGGSLRLSCVASGRTFSTYTMGWFRQAPGKEREFVAHIGWSGSSTYYADSVKGRFTISRDNAKNTMYLQMNSLKPEDTAVYYCAVAIGSPVDSYRHSDPLEYDYWGQGTQVTVSE for me?
Return: 11700

(P) P2 (VHH) VHH: DVQLVESGGGLVQAGGSLRLSCAASGHTFSSYTMGWFHQAPGKEREFVAEISGTGGNTGYADSVKGRFTISRDNAKNTVYLQMNSLKPEDTAVYYCAAVIGSPTDSSDYRSSLDYDYWGQGTQVTVSE
(Q) P13 (VHH) VHH: QVQLVESGGGLVQAGGSLRLSCAASGRTFSTYTMGWFRQAPGKEREFVAAVTWSETLYSDSVKGRFTISRDNAKNTVYLQMNSLKPEDTAVYYCAAVQGSPVDTIVVLTTSEEYDYWGQGTQVTVSS
(R) P5 (VHH) VHH: DVQLVESGGGLVQAGDSLRLSCAASGITFRWYTMAWFRQAPGKERDFVATINWSGSDTNYADSVKGRFTISRDNAKNTVTLQMNSLQPEDTAVYYCAGVPGTSLSGETDPRDYDYWGQGTQVTVSE
(S) P4 (VHH) VHH: HVQLVESGGGLVQAGGSLRLSCAAAGRTSSDYAMGWFRQAPGKEREFVSAINWSGISTYYADSVKGRFTISRDNAKNTVHLQMNSLKPEDTAVYYCAAEKLESLRNWHDPLMYDYWGQGTQVTVSE
Enquiry: Order the entries by their reported Affinity fold change, beginning at the minimum. Note for the reader: the ranking is given by listing the labels in the order requested.
Return: S, P, Q, R

// data source = patent US20230176070A1
